Tested on: Haemophilus influenzae C.L.
Test: MIC, standard agar-dilution assay
Format: cell-based
Settings: agar-dilution; Haemophilus influenzae C.L., Ampicillin-sensitive strain; read-out: MIC
What MIC was measured for each of the following?
Give bare numbers, in µg/mL.

CCC1CC(C)C(=O)C=CC(C)=CC(COc2cccc(N(C)C)c2)C(CC)OC(=O)CC(O)C(C)C1OC1OC(C)C(O)C(N(C)C)C1O (stereo not drawn) [Compound 44]	16
CCC1OC(=O)CC(O)C(C)C(OC2OC(C)C(O)C(N(C)C)C2O)C(CCN(C)C)CC(C)C(=O)C=CC(C)=CC1CO (stereo not drawn) [Compound 2]	16

// moving on: another record for MIC
Exercise: What value of MIC has been recorded for this entry: CCC1CC(C)C(=O)C=CC(C)=CC(CN2CCCCCCC2)C(CC)OC(=O)CC(O)C(C)C1OC1OC(C)C(O)C(N(C)C)C1O (stereo not drawn) [Compound 43]
Key: 4

====

Test system: Streptococcus pyogenes 9960
Assay: MIC, standard agar-dilution assay
Assay type: cell-based
Conditions: 9960
Experimental endpoint: MIC (µg/mL)
One number for each entry, in µg/mL.

As a guide, the following entries are already answered.
CCC1OC(=O)CC(O)C(C)C(OC2OC(C)C(O)C(N(C)C)C2O)C(CCOc2ccccc2)CC(C)C(=O)C=CC(C)=CC1COc1ccccc1 (centres unmarked) [Compound 32, 20,23-Di-O-phenyl-20-dihydro-OMT]	2
CCC1OC(=O)CC(O)C(C)C(OC2OC(C)C(O)C(N(C)C)C2O)C(CCOC(=O)Cc2ccccc2)CC(C)C(=O)C=CC(C)=CC1COC(=O)Cc1ccccc1 (centres unmarked) [Compound 30, 20,23-Di-O-Phenylacetyl-20-dihydro-OMT]	0.5
CCC1OC(=O)CC(O)C(C)C(OC2OC(C)C(O)C(N(C)C)C2O)C(CCOc2ccccc2)CC(C)C(=O)C=CC(C)=CC1COC(=O)CCc1ccccc1 (centres unmarked) [Compound 33]	2
CCC1OC(=O)CC(O)C(C)C(OC2OC(C)C(O)C(N(C)C)C2O)C(CCN(c2ccccc2)c2ccccc2)CC(C)C(=O)C=CC(C)=CC1CO (centres unmarked) [Compound 56, 20-Diphenylamino-20-deoxy-20-dihydro-OMT]	8

Pending molecule:
Exercise: Enter reported MIC observed with Streptococcus pyogenes 9960 for CCC1OC(=O)CC(O)C(C)C(OC2OC(C)C(O)C(N(C)C)C2O)C(CCOC(=O)Cc2ccccc2)CC(C)C(=O)C=CC(C)=CC1CO (centres unmarked) [Compound 1, 20-O-Phenylacetyl-20-dihydro-OMT]
Key: 2

====

Exercise: state measured MIC for each of the compounds provided.
Tested on: Klebsiella pneumoniae KAE
Experiment: MIC, standard agar-dilution assay
Assay type: cell-based
Conditions: agar-dilution; Klebsiella pneumoniae KAE; read-out: MIC

# example entries with known answers
CCC1OC(=O)CC(O)C(C)C(OC2OC(C)C(OC3CC(C)(O)C(O)C(C)O3)C(N(C)C)C2O)C(CCN2C(=O)c3ccccc3C2=O)CC(C)C(=O)C=CC(C)=CC1CN1C(=O)c2ccccc2C1=O (stereo not drawn)	> 128 µg/mL
CCC1CC(C)C(=O)C=CC(C)=CC(COC(C)=O)C(CC)OC(=O)CC(O)C(C)C1OC1OC(C)C(OC(C)=O)C(N(C)C)C1OC(C)=O (stereo not drawn)	> 128 µg/mL

Below: the item to evaluate.
Exercise: MIC lookup needed for CCC1CC(C)C(=O)C=CC(C)=CC(CN2CCCCCCC2)C(CC)OC(=O)CC(O)C(C)C1OC1OC(C)C(O)C(N(C)C)C1O (stereo not drawn) , thanks.
Key: > 128 µg/mL

====

Please provide measured MIC for the entries that follow.
System: Klebsiella pneumoniae X26
Assay: MIC, standard agar-dilution assay
Type: cell-based
Details: Klebsiella pneumoniae, X26
Record the result as a number with its unit.

// below: answered compounds
CCC1CC(C)C(=O)C=CC(C)=CC(COc2cccc(OC)c2OC)C(CC)OC(=O)CC(O)C(C)C1OC1OC(C)C(O)C(N(C)C)C1O (stereo not drawn) [Compound 47]	4 µg/mL
CCC1OC(=O)CC(O)C(C)C(OC2OC(C)C(O)C(N(C)C)C2O)C(CCNC)CC(C)C(=O)C=CC(C)=CC1CO (stereo not drawn) [Compound 3, 20-N-Methylamino-20-deoxy-20-dihydro-OMT]	64 µg/mL

Then there is this compound:
Exercise: Value lookup for MIC; key = CCC1OC(=O)CC(O)C(C)C(OC2OC(C)C(O)C(N(C)C)C2O)C(CCO)CC(C)C(=O)C=CC(C)=CC1COC(=O)CCc1ccccc1 (stereo not drawn) [Compound 52, 20-Dihydro-23-O-phenylpropionyl-OMT]
Key: 4 µg/mL

====

Test system: Streptococcus pyogenes 9960
Assay: MIC, standard agar-dilution assay
Format: cell-based
Details: 9960
Lab note: anything with MIC below 4 µg/mL is marked label 1; values at 4 µg/mL or higher are marked label 0.

Please review the following examples before continuing.
CCC1CC(C)C(=O)C=CC(C)=CC(COC(=O)Cc2ccccc2)C(CC)OC(=O)CC(O)C(C)C1OC1OC(C)C(O)C(N(C)C)C1O (centres unmarked)	label 1
CCC1OC(=O)CC(O)C(C)C(OC2OC(C)C(OC3CC(C)(O)C(O)C(C)O3)C(N(C)C)C2O)C(CCNCCc2ccccc2)CC(C)C(=O)C=CC(C)=CC1CO (centres unmarked)	label 0
CCC1OC(=O)CC(O)C(C)C(OC2OC(C)C(OC3CC(C)(O)C(O)C(C)O3)C(N(C)C)C2O)C(CCNCc2ccccc2)CC(C)C(=O)C=CC(C)=CC1C (centres unmarked)	label 0
CCC1OC(=O)CC(O)C(C)C(OC2OC(C)C(OC(C)=O)C(N(C)C)C2OC(C)=O)C(CCOC(=O)Cc2ccccc2)CC(C)C(=O)C=CC(C)=CC1COC(=O)Cc1ccccc1 (centres unmarked)	label 0
CCC1CC(C)C(=O)C=CC(C)=CC(CSc2ccccc2)C(CC)OC(=O)CC(O)C(C)C1OC1OC(C)C(O)C(N(C)C)C1O (centres unmarked)	label 1
CCC1OC(=O)CC(O)C(C)C(OC2OC(C)C(O)C(N(C)C)C2O)C(CCN2C(=O)c3ccccc3C2=O)CC(C)C(=O)C=CC(C)=CC1CO (centres unmarked) [Compound 6, 20-N-Phthalimido-20-deoxy-20-dihydro-OMT]	label 0

--- query ---
Exercise: Decide: MIC of CCC1OC(=O)CC(O)C(C)C(OC2OC(C)C(O)C(N(C)C)C2O)C(CCOc2ccccc2)CC(C)C(=O)C=CC(C)=CC1CN1CCCCCCC1 (centres unmarked) strictly below 4 µg/mL?
Key: label 1

====

Tested on: Pasteurella multocida 40G
Assay: MIC, conventional broth-dilution microtiter test
Type: cell-based
Details: broth-dilution microtiter; Pasteurella multocida 40G; read-out: MIC
Experimental endpoint: MIC (µg/mL)
One number for each entry, in µg/mL.

The following compounds have reported results that may help.
CCC1OC(=O)CC(O)C(C)C(OC2OC(C)C(O)C(N(C)C)C2O)C(CCN2C(=O)c3ccccc3C2=O)CC(C)C(=O)C=CC(C)=CC1C (centres unmarked) [Compound 22]	50
CCC1OC(=O)CC(O)C(C)C(OC2OC(C)C(O)C(N(C)C)C2O)C(CCN(C)C)CC(C)C(=O)C=CC(C)=CC1CO (centres unmarked) [Compound 2]	50
CCC1OC(=O)CC(O)C(C)C(OC2OC(C)C(O)C(N(C)C)C2O)C(CCN2C(=O)c3ccccc3C2=O)CC(C)C(=O)C=CC(C)=CC1CO (centres unmarked) [Compound 6, 20-N-Phthalimido-20-deoxy-20-dihydro-OMT]	50
CCC1CC(C)C(=O)C=CC(C)=CC(COC(C)=O)C(CC)OC(=O)CC(O)C(C)C1OC1OC(C)C(OC(C)=O)C(N(C)C)C1OC(C)=O (centres unmarked) [Compound 40]	25
CCC1CC(C)C(=O)C=CC(C)=CC(CSc2ccccc2)C(CC)OC(=O)CC(O)C(C)C1OC1OC(C)C(O)C(N(C)C)C1O (centres unmarked) [Compound 42]	25

Quick batch: MIC for everything below.
1. CCC1OC(=O)CC(O)C(C)C(OC2OC(C)C(O)C(N(C)C)C2O)C(CCNCc2ccccc2)CC(C)C(=O)C=CC(C)=CC1CO (centres unmarked) [Compound 4, 20-N-Benzylamino-20-deoxy-20-dihydro-OMT]
2. CCC1OC(=O)CC(O)C(C)C(OC2OC(C)C(O)C(N(C)C)C2O)C(CCNC)CC(C)C(=O)C=CC(C)=CC1CO (centres unmarked) [Compound 3, 20-N-Methylamino-20-deoxy-20-dihydro-OMT]
3. CCC1OC(=O)CC(O)C(C)C(OC2OC(C)C(O)C(N(C)C)C2O)C(CCO)CC(C)C(=O)C=CC(C)=CC1CN1CCCCCCC1 (centres unmarked) [Compound 58]
4. CCC1OC(=O)CC(O)C(C)C(OC2OC(C)C(OC3CC(C)(O)C(O)C(C)O3)C(N(C)C)C2O)C(CCNCCc2ccccc2)CC(C)C(=O)C=CC(C)=CC1CO (centres unmarked) [Compound 16]

Key:
6.25
50
0.39
50
